- tested.target: human FXa (Homo sapiens, UniProt P00742)
- Sequence (P00742 235-488 limits assumed): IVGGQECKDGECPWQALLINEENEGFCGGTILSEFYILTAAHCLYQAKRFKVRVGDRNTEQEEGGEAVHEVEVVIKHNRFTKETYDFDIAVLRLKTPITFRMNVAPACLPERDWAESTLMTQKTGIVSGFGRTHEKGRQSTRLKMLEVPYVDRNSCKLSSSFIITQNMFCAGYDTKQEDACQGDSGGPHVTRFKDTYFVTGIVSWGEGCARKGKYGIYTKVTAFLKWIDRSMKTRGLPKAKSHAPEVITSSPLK
- Sequence (P00742 41-179 partner limits assumed): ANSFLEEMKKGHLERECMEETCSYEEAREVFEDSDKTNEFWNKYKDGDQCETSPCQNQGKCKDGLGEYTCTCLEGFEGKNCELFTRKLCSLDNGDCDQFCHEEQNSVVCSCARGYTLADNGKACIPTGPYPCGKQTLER
- assay.protocol: Human activated coagulation factor X (FXa) inhibiting effect
- assay.conditions: human FXa (0.3 unit/ml), substrate S-2765, 37° C., tris buffer pH 8.3, absorbance at 405 nm
Task for the reader: assign each of the following compounds its reported pIC50.
The scale used: pIC50 is minus the common logarithm of the concentration in molar units.

What value of measured pIC50 is listed for Cc1cc(N2CCC(N(CCC(=O)N3CC[S+]([O-])CC3)C(=O)CCS(=O)(=O)c3ccc4cc(Cl)ccc4c3)CC2)ccn1 [Example 68] ?
7.47

Please answer likewise for CC(=O)NCCN(C(=O)CCS(=O)(=O)c1ccc2cc(Cl)ccc2c1)C1CCN(c2ccncc2)CC1 [Example 54]
7.41

Please answer likewise for COC(=O)CN(CCCS(=O)(=O)c1ccc2cc(Cl)ccc2c1)C(=O)C1CCN(c2ccncc2)CC1 [Example 14]
7.22

Please answer likewise for CCOC(=O)CN(C(=O)CCS(=O)(=O)c1ccc2cc(Cl)ccc2c1)C1CCN(c2ccncc2)CC1 [Example 33]
7.26

Please answer likewise for Cc1cc(N2CCC(N(Cc3ccccn3)C(=O)CCS(=O)(=O)c3ccc4cc(Cl)ccc4c3)CC2)ccn1 [Example 129]
7.18

Please answer likewise for CC(=O)NCCN(C(=O)CCS(=O)(=O)c1ccc2cc(Cl)ccc2c1)C1CCN(c2ccnc(C)c2)CC1 [Example 52]
7.31

Please answer likewise for CN(CCCS(=O)(=O)c1ccc2cc(Cl)ccc2c1)C(=O)C1CCN(c2ccncc2)CC1 [Example 5]
7.02

Please answer likewise for CC(=O)N(C)CCN(C(=O)CCS(=O)(=O)c1ccc2cc(Cl)ccc2c1)C1CCN(c2ccnc(C)c2)CC1 [Example 75]
7.23

Please answer likewise for Cc1cc(N2CCC(N(C)C(=O)CCS(=O)(=O)c3ccc4cc(Cl)ccc4c3)CC2)cc(C)n1 [Example 118]
7.20

Please answer likewise for CCOC(=O)CCN(C(=O)CCS(=O)(=O)c1ccc2cc(Cl)ccc2c1)C1CCN(c2ccncc2)CC1 [Example 34]
7.43

Please answer likewise for CCOC(=O)CCN(C(=O)CCS(=O)(=O)c1ccc2cc(Cl)ccc2c1)C1CCN(c2ccnc(C)c2)CC1 [Example 67]
7.60

Please answer likewise for CS(=O)(=O)NCCN(C(=O)CCS(=O)(=O)c1ccc2cc(Cl)ccc2c1)C1CCN(c2ccncc2)CC1 [Example 55]
7.40

Where do these numbers come from? They come from patent US20030187023A1.
